Data provenance is paper PMC4691852.

Biological target: T1, MazF (Bacillus subtilis, UniProt P96622 1-116)
T1 sequence: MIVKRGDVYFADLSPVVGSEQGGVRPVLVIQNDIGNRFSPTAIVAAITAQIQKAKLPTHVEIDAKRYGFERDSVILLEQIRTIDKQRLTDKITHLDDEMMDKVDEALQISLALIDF
Experiment: ITC
quantity_measured: Kd (nM)
Express it in nM; write the number only.

Form field: reported Kd of UUUACAUAA (ssRNA, 2'-deoxyuridine at position 3 (other residues ribo)) [uncleavable 9-mer RNA UUdUACAUAA] 64
